Test system: Puccinia triticina
Assay: In vivo preventive test on Puccinia triticina (wheat)
Details: Table K, 500 ppm of active ingredient, evaluated 8 days after inoculation
Measurement Name: Efficacy (%)
Answer format: numeric, % implied, no suffix.

Example cases with answers are listed next.
Molecule: CC(CC1CCCCC1)N(C(=O)c1c(C(F)F)nn(C)c1F)C1CC1 (centres unmarked)
Unit Spec: %
Efficacy: 90
//
Molecule: CC(C)CC(C)C1CCCC1NC(=O)c1c(C(F)F)nn(C)c1F (mixture of isomers) [Example 315]
Unit Spec: %
Efficacy: 95
//
Molecule: CC(CCc1ccc(Cl)cc1Cl)N(C(=O)c1c(C(F)F)nn(C)c1F)C1CC1 (centres unmarked)
Unit Spec: %
Efficacy: 90
//
Molecule: Cn1nc(C(F)F)c(C(=O)N(CC#Cc2ccccc2)C2CC2)c1F
Unit Spec: %
Efficacy: 89
//
Molecule: CN(CCCc1cc(Cl)ccc1Cl)C(=O)c1c(C(F)F)nn(C)c1F
Unit Spec: %
Efficacy: 78
//
Molecule: CC(C)CC(C)C1CCCCC1NC(=O)c1c(C(F)F)nn(C)c1F (single isomer, unassigned) [Example 338]
Unit Spec: %
Efficacy: 100

Query the reported Efficacy for Puccinia triticina; item: CCCCC1CCCC1NC(=O)c1c(C(F)F)nn(C)c1F (centres unmarked)
95

Query Cn1nc(C(F)F)c(C(=O)N(CCOc2c(Cl)cccc2Cl)C2CC2)c1F next
80

====

Test system: Alternaria solani
Assay: In vivo preventive test on Alternaria solani (tomato)
Settings: 500 ppm of active ingredient, evaluated 7 days after inoculation
Measurement Name: Efficacy

Please review the following examples before continuing.
Compound: CN(CCN(C)c1cccc(Cl)c1)C(=O)c1c(C(F)F)nn(C)c1F [Example 82]
Measurement Name: Efficacy
Result: 95%

Compound: Cn1nc(C(F)F)c(C(=O)N(CCOc2c(Cl)cc(Cl)cc2Cl)C2COC2)c1F [Example 210]
Measurement Name: Efficacy
Result: 70%

Compound: Cn1nc(C(F)F)c(C(=O)NC(CSc2ccccc2)C2CC2)c1F (centres unmarked) [Example 22]
Measurement Name: Efficacy
Result: 95%

Compound: Cn1nc(C(F)F)c(C(=O)NCCOc2cc(Cl)ccc2Cl)c1Cl [Example 170]
Measurement Name: Efficacy
Result: 90%

Okay, now this compound:
Which Efficacy is listed for Cn1nc(C(F)F)c(C(=O)N(C[Si](C)(C)Cc2ccccc2Cl)C2CC2)c1Cl [Example 294] ?
95%

====

Assay: log P by HPLC on reversed-phase column (EEC Directive 79/831 Annex V.A8)
Type: physicochemical
Listed next: entries and their corresponding logP.
Simply state the number, no unit and no words.

// below: answered compounds
Compound: CCC(COc1cc(C)cc(C)n1)NC(=O)c1c(C(F)F)nn(C)c1Cl (stereo not drawn) [Example 67]
logP: 2.14

Compound: CC(COc1c(Cl)cc(Cl)cc1Cl)NC(=O)c1c(C(F)F)nn(C)c1Cl (stereo not drawn) [Example 211]
logP: 4.20

Compound: Cn1nc(C(F)F)c(C(=O)N(C2CC2)C2CCCCC2C2CCCCC2)c1F (stereo not drawn) [Example 372]
logP: 5.28

Compound: CC(CNC(=O)c1c(C(F)F)nn(C)c1F)Cc1c(F)cccc1F (stereo not drawn) [Example 157]
logP: 3.02

Compound: CC(CSCc1ccco1)N(C(=O)c1c(C(F)F)nn(C)c1Cl)C1CC1 (stereo not drawn) [Example 237]
logP: 3.27

Please give the measured logP for this compound: CC(CCc1ccc(Cl)c(Cl)c1)NC(=O)c1c(C(F)F)nn(C)c1Cl (racemic) [Example 131]
3.85

Another compound to check: CCN(CC=Cc1ccccc1)C(=O)c1c(C(F)F)nn(C)c1F [Example 264]
3.02

Then what about the compound Cn1nc(C(F)F)c(C(=O)NCCOc2cccc(Oc3ccccc3)c2)c1Cl [Example 75] ?
3.60

Item: CN(C(=O)c1c(C(F)F)nn(C)c1F)C1CCCCC1Cc1ccccc1 (stereo not drawn) [Example 253]
3.72

====

System: Alternaria solani
Assay: In vivo preventive test on Alternaria solani (tomato)
Settings: 500 ppm of active ingredient, evaluated 7 days after inoculation
Measured Efficacy, listed per entry for reference.
Field: numeric (%). Do not append units.

Molecule: CC(C)CC(C)C1CCCCC1NC(=O)c1c(C(F)F)nn(C)c1F (centres unmarked) [Example 339]
Efficacy [%]: 100
//
Molecule: CCCCC1CCCCC1NC(=O)c1c(C(F)F)nn(C)c1F (single isomer, unassigned) [Example 329]
Efficacy [%]: 100
//
Molecule: CC(CNC(=O)c1c(C(F)F)nn(C)c1Cl)Cc1cc(Cl)cc(Cl)c1 (centres unmarked) [Example 115]
Efficacy [%]: 90
//
Molecule: Cn1nc(C(F)F)c(C(=O)NC(C)(C)CCc2cc(Cl)ccc2Cl)c1Cl [Example 177]
Efficacy [%]: 100

Pending molecule:
Suppose we examine the molecule Cn1nc(C(F)F)c(C(=O)NC2CCCCC2CC[Si](C)(C)C)c1F (centres unmarked) [Example 353] ; what Efficacy value has been reported?
95

====

Test: log P by HPLC on reversed-phase column (EEC Directive 79/831 Annex V.A8)
Assay type: physicochemical
Measurement Name: logP
Answer with a number only.

As a guide, the following entries are already answered.
Compound: Cn1nc(C(F)F)c(C(=O)N(CCCC2CC=CO2)C2CC2)c1F (stereo not drawn) [Example 98]
logP: 1.45
--
Compound: CCCN(C(=O)c1c(C(F)F)nn(C)c1Cl)C(C)COc1ccccc1-c1ccccc1 (stereo not drawn) [Example 31]
logP: 4.51
--
Compound: CCN(C(=O)c1c(C(F)F)nn(C)c1Cl)C(C)COc1ccc(C)cc1 (stereo not drawn) [Example 39]
logP: 3.48

Tell me the measured logP of Cc1ccc(CCCN(C(=O)c2c(C(F)F)nn(C)c2F)C2CC2)s1 [Example 113] , please.
3.44

Please give the result for Cc1cccc(OC2CCCC2NC(=O)c2c(C(F)F)nn(C)c2F)c1 (stereo not drawn) [Example 259] too.
3.52

Now this one: Cn1nc(C(F)F)c(C(=O)NCCOc2ccc(-c3ccccc3)cc2)c1Cl [Example 26]
3.60

Same lookup for CCCN(CCOc1ccccc1)C(=O)c1c(C(F)F)nn(C)c1Cl [Example 7] , please.
3.21

Then this compound: CC(C)C(C(=O)OCc1ccccc1)N(C)C(=O)c1c(C(F)F)nn(C)c1F (stereo not drawn) [Example 227]
3.35

Check CCC1(CNC(=O)c2c(C(F)F)nn(C)c2Cl)CCCCC1 [Example 365] too.
3.78

====

Measured Efficacy accompanies every entry in the list below.
Tested on: Alternaria solani
Assay: In vivo preventive test on Alternaria solani (tomato)
Details: 500 ppm of active ingredient, evaluated 7 days after inoculation
Quick note: give the figure in %, leave out the unit.

Known results for compounds:
Compound: CN(CCN(C)c1cccc(Cl)c1)C(=O)c1c(C(F)F)nn(C)c1Cl
Measurement Target: Alternaria solani
Measurement Name: Efficacy
Numeric Readout: 90

Compound: CC(C)CC(C)C1CCCC1NC(=O)c1c(C(F)F)nn(C)c1Cl (single isomer, unassigned) [Example 314]
Measurement Target: Alternaria solani
Measurement Name: Efficacy
Numeric Readout: 95

Given the entry Cn1nc(C(F)F)c(C(=O)NCC(Sc2ccc(Cl)cc2)C(F)(F)F)c1Cl (centres unmarked) , report its measured Efficacy.
80

How about Cn1nc(C(F)F)c(C(=O)NC(C)(C)CCc2ccc(Cl)cc2Cl)c1Cl ?
95

Ok, now CC(CC(C)(C)C)C1CCCCC1NC(=O)c1c(C(F)F)nn(C)c1Cl (centres unmarked)
95

====

Assay: log P by HPLC on reversed-phase column (EEC Directive 79/831 Annex V.A8)
Format: physicochemical
Method: In table 1, the log P values were determined in accordance with EEC Directive 79/831 Annex V.A8 by HPLC (High Performance Liquid Chromatography) on a reversed-phase column (C18), using the method described below: Temperature: 40° C.; […]
Measurement Name: logP
Number only, no unit.

Compound: Cn1nc(C(F)F)c(C(=O)NC2CCCCC2Oc2ccccc2)c1Cl (stereo not drawn) [Example 246]
Numeric Readout: 3.76
--
Compound: Cn1nc(C(F)F)c(C(=O)NC(COc2ccc3ccccc3c2)C2CC2)c1F (racemic) [Example 137]
Numeric Readout: 3.74
--
Compound: CN(CCCc1cc(Cl)ccc1Cl)C(=O)c1c(C(F)F)nn(C)c1F [Example 166]
Numeric Readout: 3.48

Look at this compound and give its reported logP. Cn1nc(C(F)F)c(C(=O)NCCCC2Cc3ccccc3O2)c1F (stereo not drawn) [Example 97]
2.69

Also need CC(CCc1ccc(Cl)cc1Cl)N(C(=O)c1c(C(F)F)nn(C)c1F)C1CC1 (stereo not drawn) [Example 184] , thanks.
4.56

Repeat for the following compound: CC(C)OC1CCCC(NC(=O)c2c(C(F)F)nn(C)c2F)C1 (stereo not drawn) [Example 325]
2.06

Also, CN(CCN(C)c1cccc(Cl)c1)C(=O)c1c(C(F)F)nn(C)c1F [Example 82] please.
3.02

Likewise for CC(CCc1c(Cl)cc(Cl)cc1Cl)N(C(=O)c1c(C(F)F)nn(C)c1F)C1CC1 (stereo not drawn) [Example 213] ?
5.14

Please give the result for CN(CC(NC(=O)c1c(C(F)F)nn(C)c1F)C1CC1)c1ccccc1 (stereo not drawn) [Example 17] too.
3.02

# repeat for CC(CCc1ncc(C(F)(F)F)cc1Cl)N(C(=O)c1c(C(F)F)nn(C)c1F)C1CC1 (stereo not drawn) [Example 86]
3.92

Do the same for Cn1nc(C(F)F)c(C(=S)N(C[Si](C)(C)Cc2ccccc2)C2CC2)c1F [Example 289] please
4.67
